read-out: xenobiotic metabolism (CYP1A1), CYP1A1 (gene 1543); assay: CLD_CYP1A1_24hr: CellzDirect (CLD) Gene Expression Assay for xenobiotic metabolism (CYP1A1) at 24 hours (AID 2283673);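 note: CYP1A1 mRNA level by quantitative nuclease protection with chemiluminescence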
Results filed as inconclusive are left out. The source made the active and inactive calls. Rule for the calls: active = hit-call score of the fitted dose curve at least 0.9, where 1 is the maximum; inconclusive = response in the unintended direction; inactive = score below 0.9.
# output must be one of active, inactive

Kindly provide the recorded test outcome for the following molecule: CC(Oc1ccc(Cl)cc1Cl)C(=O)O (centres undefined) inactive

Kindly provide the recorded test outcome for the following molecule: "C=CCC1=C(C)[C@@H](OC(=O)[C@@H]2[C@@H](C=C(C)C)C2(C)C)CC1=O" inactive

Kindly provide the recorded test outcome for the following molecule: "Oc1ccccc1-c1ccccc1" active

Kindly provide the recorded test outcome for the following molecule: C#CCOS(=O)OC1CCCCC1Oc1ccc(C(C)(C)C)cc1 (centres undefined) active

Kindly provide the recorded test outcome for the following molecule: "COc1nc(C)nc(NC(=O)NS(=O)(=O)c2ccccc2Cl)n1" inactive

Kindly provide the recorded test outcome for the following molecule: "COP(=S)(OC)Oc1nc(Cl)c(Cl)cc1Cl" active

Kindly provide the recorded test outcome for the following molecule: N#Cc1nn(-c2c(Cl)cc(C(F)(F)F)cc2Cl)c(N)c1S(=O)C(F)(F)F (centres undefined) inactive

Kindly provide the recorded test outcome for the following molecule: "Cc1ccc(-c2c(Cl)nc(C#N)n2S(=O)(=O)N(C)C)cc1" active

Kindly provide the recorded test outcome for the following molecule: "CN(C)C(=S)SSC(=S)N(C)C" active

Kindly provide the recorded test outcome for the following molecule: "O=C(O)COc1nc(Cl)c(Cl)cc1Cl" inactive

Kindly provide the recorded test outcome for the following molecule: "CCCCNC(=O)OCC#CI" inactive

Kindly provide the recorded test outcome for the following molecule: "COc1cnc(OC)n2nc(NS(=O)(=O)c3c(OCC(F)F)cccc3C(F)(F)F)nc12" inactive

Kindly provide the recorded test outcome for the following molecule: "CCCN(CCC)c1c([N+](=O)[O-])cc(S(N)(=O)=O)cc1[N+](=O)[O-]" active

Kindly provide the recorded test outcome for the following molecule: "CCOP(=S)(OCC)SCn1c(=O)oc2cc(Cl)ccc21" active

Kindly provide the recorded test outcome for the following molecule: "COc1ccc(C(c2ccc(OC)cc2)C(Cl)(Cl)Cl)cc1" inactive

Kindly provide the recorded test outcome for the following molecule: COC(=O)C(C)Oc1ccc(Oc2ccc(Cl)cc2Cl)cc1 (centres undefined) inactive

Kindly provide the recorded test outcome for the following molecule: CCOC(=O)CC(SP(=S)(OC)OC)C(=O)OCC (centres undefined) inactive

Kindly provide the recorded test outcome for the following molecule: C=CC1(C)OC(=O)N(c2cc(Cl)cc(Cl)c2)C1=O (centres undefined) active

Kindly provide the recorded test outcome for the following molecule: Cc1c(F)c(F)c(COC(=O)C2C(/C=C(\Cl)C(F)(F)F)C2(C)C)c(F)c1F (centres undefined) inactive

Kindly provide the recorded test outcome for the following molecule: CCCCC(CC)COC(=O)c1ccccc1C(=O)OCC(CC)CCCC (centres undefined) inactive

Kindly provide the recorded test outcome for the following molecule: "CCNc1nc(Cl)nc(NC(C)C)n1" active

Kindly provide the recorded test outcome for the following molecule: "CC(C)Oc1cc(-n2nc(C(C)(C)C)oc2=O)c(Cl)cc1Cl" active

Kindly provide the recorded test outcome for the following molecule: "CC(C)(C)c1ccc(CSc2cnn(C(C)(C)C)c(=O)c2Cl)cc1" active

Kindly provide the recorded test outcome for the following molecule: "Cc1cc(Cl)ccc1OCC(=O)O" inactive

Kindly provide the recorded test outcome for the following molecule: "CCCCNC(=O)n1c(NC(=O)OC)nc2ccccc21" active

Kindly provide the recorded test outcome for the following molecule: "CON(C)C(=O)Nc1ccc(Cl)c(Cl)c1" active

Kindly provide the recorded test outcome for the following molecule: OC(c1ccc(Cl)cc1)(c1cncnc1)c1ccccc1Cl (centres undefined) active

Kindly provide the recorded test outcome for the following molecule: CCOC(=O)C(Cl)Cc1cc(-n2nc(C)n(C(F)F)c2=O)c(F)cc1Cl (centres undefined) active

Kindly provide the recorded test outcome for the following molecule: "COC(=O)N(OC)c1ccccc1COc1ccn(-c2ccc(Cl)cc2)n1" active

Kindly provide the recorded test outcome for the following molecule: CCON=C(CC)C1=C(O)CC(c2c(C)cc(C)cc2C)CC1=O (centres undefined) inactive

Kindly provide the recorded test outcome for the following molecule: "CNC(=S)S" inactive

Kindly provide the recorded test outcome for the following molecule: "CCNc1nc(Cl)nc(NCC)n1" active

Kindly provide the recorded test outcome for the following molecule: CCCC1COC(Cn2cncn2)(c2ccc(Cl)cc2Cl)O1 (centres undefined) active

Kindly provide the recorded test outcome for the following molecule: "N#Cc1cc(Br)c(O)c(Br)c1" active
